test: clinical; settings: female, human, in vivo, ip, 5 mg/m2, T1/2
measured.property: half-life (h)
Reply with just the number (in h).

Determine from records and report half-life for CC[C@@]1(O)C(=O)OCc2c1cc1n(c2=O)Cc2cc3c(CN(C)C)c(O)ccc3nc2-1 [topotecan, Topotecan]
4.6

###

assay: clinical; conditions: female, human, in vivo, ip, 20 mg/m2, T1/2
measured.property: half-life

Determine from records and report half-life for CC[C@@]1(O)C(=O)OCc2c1cc1n(c2=O)Cc2cc3c(CN(C)C)c(O)ccc3nc2-1
4.4 h

###

test: clinical; conditions: female, human, in vivo, ip, 20 mg/m2, Tmax
measured.property: Tmax (h)
Reply with just the number (in h).

Determine from records and report Tmax for CC[C@@]1(O)C(=O)OCc2c1cc1n(c2=O)Cc2cc3c(CN(C)C)c(O)ccc3nc2-1
3

###

test: clinical; conditions: female, human, in vivo, ip, 15 mg/m2, Tmax
measured.property: Tmax (h)
Reply with just the number (in h).

Determine from records and report Tmax for CC[C@@]1(O)C(=O)OCc2c1cc1n(c2=O)Cc2cc3c(CN(C)C)c(O)ccc3nc2-1
1.6

###

experiment: clinical; settings: female, human, in vivo, ip, 30 mg/m2, Cmax
measured.property: Cmax (µg/L)
Reply with just the number (in µg/L).

Determine from records and report Cmax for CC[C@@]1(O)C(=O)OCc2c1cc1n(c2=O)Cc2cc3c(CN(C)C)c(O)ccc3nc2-1 [topotecan, Topotecan]
145

###

assay: clinical; settings: female, human, in vivo, ip, Tmax (time to peak plasma level after start of IP administration)
measured.property: Tmax
Write your answer as a measured quantity: the number, then the unit.

Determine from records and report Tmax for CC[C@@]1(O)C(=O)OCc2c1cc1n(c2=O)Cc2cc3c(CN(C)C)c(O)ccc3nc2-1
2.1 h

###

experiment: clinical; details: female, human, in vivo, ip, 20 mg/m2, MRT
measured.property: MRT (h)
Reply with just the number (in h).

Determine from records and report MRT for CC[C@@]1(O)C(=O)OCc2c1cc1n(c2=O)Cc2cc3c(CN(C)C)c(O)ccc3nc2-1
8.1

###

test: clinical; conditions: female, human, in vivo, ip, 10 mg/m2, Cmax
measured.property: Cmax (ng/mL)
Reply with just the number (in ng/mL).

Determine from records and report Cmax for CC[C@@]1(O)C(=O)OCc2c1cc1n(c2=O)Cc2cc3c(CN(C)C)c(O)ccc3nc2-1 [topotecan, Topotecan]
14
